Tested on: MALME-3M melanoma
TEST DESCRIPTION: NCI tumour cell line growth inhibition, 48 h
MEASUREMENT LABEL: TGI (µM)
Numbers only, in µM.

Some molecules with known TGI results, for comparison:
>  <MOLECULE>
CC(CN1CC(=O)NC(=O)C1)N1CC(=O)NC(=O)C1 (stereo not given)

>  <EXPERIMENTAL VALUE>
355

$$$$
>  <MOLECULE>
CC(C)(C)c1cc(C(=O)C2Cc3ccccc3C(=O)O2)cc(C(C)(C)C)c1O (stereo not given)

>  <EXPERIMENTAL VALUE>
29.6

$$$$

Measured TGI of `O=C1NCN(c2ccccc2)C12CCN(CCCC(c1ccc(F)cc1)c1ccc(F)cc1)CC2` : 3.46

====

Tested on: HOP-92 NSCLC
TEST DESCRIPTION: NCI tumour cell line growth inhibition, 48 h
MEASUREMENT LABEL: TGI (µM)
One number for each entry, in µM.

>  <COMPOUND>
CCC#CC[C@H](O)C/C=C1/C(=O)C=C[C@@H]1C/C=C\CCCC(=O)OC

>  <U>
µM

>  <TGI>
5.81

$$$$

Go through the items and report each one's TGI.
1. CCN(CC)CCCOc1ccc2ncnc(Nc3ccc(Oc4cccc(C(F)(F)F)c4)c(Cl)c3)c2c1
2. C/C(=N\NC(=O)CC#N)C(CN1CCCCC1)C(c1ccccc1)c1c(O)c2ccccc2oc1=O (stereo not drawn)

[2.61, 95.7]

====

System: UO-31 renal
TEST DESCRIPTION: NCI tumour cell line growth inhibition, 48 h
MEASUREMENT LABEL: GI50

>  <MOLECULE>
CCN(CC)CCCOc1ccc2ncnc(Nc3ccc(Oc4cccc(C(F)(F)F)c4)c(Cl)c3)c2c1

>  <GI50>
1060 nM

$$$$
>  <MOLECULE>
CC/C=C\C[C@H](O)C/C=C1/C(=O)C=C[C@@H]1C/C=C\CCCC(=O)OC(C)C

>  <GI50>
1840 nM

$$$$
>  <MOLECULE>
O=C1OCC(c2ccc(O)cc2)=C1c1cc(O)c(O)c(O)c1

>  <GI50>
> 100000 nM

$$$$
>  <MOLECULE>
O=C(Nc1ccc2ncnc(Nc3ccc(Oc4cccc(F)c4)c(Cl)c3)c2c1)c1ccc(CN2CCOCC2)cc1

>  <GI50>
1810 nM

$$$$
>  <MOLECULE>
C=C1C(=O)O[C@H]2[C@H]1CC/C(Cn1cc(Cc3c[nH]c4ccccc34)nn1)=C\CC[C@@]1(C)O[C@@H]21

>  <GI50>
1490 nM

$$$$

Go through the items and report each one's GI50.
1. O=C1NCN(c2ccccc2)C12CCN(CCCC(c1ccc(F)cc1)c1ccc(F)cc1)CC2
2. C=CCNc1nc(O)c(/C=C2\C=Nc3ncccc32)s1
3. CC(C)=O.O=C([O-])C(F)(F)F.O=C([O-])C(F)(F)F.O=C([O-])C(F)(F)F.O=C([O-])C(F)(F)F.[Rh+2].[Rh+2]
4. COc1ccc(C(C#N)=C2C=CC(=NO)C=C2)cc1

1. 1280 nM
2. 3360 nM
3. > 100000 nM
4. 4230 nM

====

Test system: CCRF-CEM leukemia
TEST DESCRIPTION: NCI tumour cell line growth inhibition, 48 h; in the data active = GI50 below about 0.43 µM; inactive = the rest
Answer with one of the outcomes given here: active, inactive

Please review the entries below; each comes with its answer.
>  <MOLECULE>
c1ccc2cc(Cn3cc[n+](Cc4ccc5ccccc5c4)c3)ccc2c1

>  <LABEL>
inactive

$$$$
>  <MOLECULE>
COc1cc(-c2nn(-c3cccc(NC(=O)NCCNS(=O)(=O)c4ccc(Cl)cc4)c3)cc2-c2ccncc2)ccc1Cl

>  <LABEL>
active

$$$$
>  <MOLECULE>
c1cc(CN2CCCNCCNCCCNCC2)ccc1CN1CCCNCCNCCCNCC1

>  <LABEL>
inactive

$$$$

Dear all, I need the recorded test outcome for `O=C1NCN(c2ccccc2)C12CCN(CCCC(c1ccc(F)cc1)c1ccc(F)cc1)CC2` , thank you.
inactive

Dear all, I need the recorded test outcome for `O=C(Nc1ccc2ncnc(Nc3ccc(Oc4cccc(F)c4)c(Cl)c3)c2c1)c1ccc(CN2CCOCC2)cc1` , thank you.
inactive

Dear all, I need the recorded test outcome for `CCCCCCCN(CCCCCCC)C(=N)c1ccnc2ccccc12` , thank you.
inactive

These entries and their values trace back to PubChem BioAssay (NCI).
